I'd be grateful if you could share measured CC50 for these entries.
- measurement-protocol: NOVARTIS: Cytotoxicity against human hepatocellular carcinoma cell line (Huh7)
- Assay type: toxicity, cell-based, Huh-7
- run-parameters: Huh7 cells (hepatocellular carcinoma cell line)

Completed entries (count: 10):
molecule	property-label	value
COc1ccc(OC)c(-c2ccc(O)c(CNCC(C)C)c2)c1	CC50	> 10 µM
CN1C=C(c2ccc3ccccc3n2)C(C[N+](=O)[O-])c2ccccc21 (configuration not stated)	CC50	> 10 µM
c1ccc(CNc2nc(-c3ccccn3)nnc2-c2ccccc2)cc1	CC50	0.63 µM
CCOc1ccc(N(C(=O)C2COc3ccccc3O2)C(C(=O)NC2CCCCC2)c2cn(C)nc2C)cc1 (configuration not stated)	CC50	> 100 µM
OC1CCCCC1C1(NC(=S)Nc2ccccc2)CCCCC1 (configuration not stated)	CC50	22.8 µM
Cc1cc2c(cc1C)NC(c1ccccc1F)C1=C(CC(C)(C)CC1=O)N2 (configuration not stated)	CC50	> 100 µM
CC(C)C(=O)N1CCOc2c(cc(-c3csc4ccccc34)cc2OCCc2ccccn2)C1	CC50	50.6 µM
CCCNC(=O)CCCCCSc1nc2ccccc2c(=O)n1-c1ccc(F)cc1	CC50	> 11.5 µM
COCCOC(=O)C1=C(C)NC2=C(C(=O)CCC2)C1c1ccc(OC)c(OC)c1OC (configuration not stated)	CC50	> 100 µM
COc1ccc(NC(=O)C2c3ccccc3C(=O)N(CC(C)C)C2c2cccs2)cc1Cl (configuration not stated)	CC50	> 100 µM

Parameters: items (list). Returns: CC50 for each item.
1. CCC(Sc1nc2ccccc2n1C(C)=O)C(=O)NC1=NN=C(c2ccc(Br)cc2)CS1 (configuration not stated)
2. COc1cc(C(=O)NCCc2cc3ccccc3[nH]2)ccc1OC1CCN(CC(c2ccccc2)c2ccccc2)CC1
3. CC1CCN(c2nncc3ccccc23)CC1
4. CC1CCCCN1CCCNc1ncc(C(=O)NCCc2ccccc2)c(Nc2ccccc2)n1 (configuration not stated)
5. O=C(c1cccs1)N1CCN(c2ccccn2)CC1
6. O=C(NCCCCNc1ccnc2cc(Cl)ccc12)C1CCCCC1
7. CN(Cc1ccccc1)c1nc2c(c(=O)[nH]c(=O)n2C)n1CCCSc1ncccn1

1: 46.7 µM; 2: > 10.9 µM; 3: > 100 µM; 4: > 10 µM; 5: > 10 µM; 6: > 13.3 µM; 7: > 100 µM

Parameters: items (list). Returns: CC50 for each item.
1. COc1cc2c(cc1OC)C1=NC(=O)C(C(C)C)N1C(SCc1csc(Cl)n1)=N2 (configuration not stated)
2. CCn1c(SCCCCNC(=O)c2cc([N+](=O)[O-])cc([N+](=O)[O-])c2)nc(-c2ccccc2)c1-c1ccccc1
3. CC(C)(C)c1ccc(C(=O)NCCCCNc2ccnc3cc(Cl)ccc23)cc1

["14.3 µM", "6.52 µM", "> 10.9 µM"]

Parameters: items (list). Returns: CC50 for each item.
1. COc1ccc2nc(C)cc(NN=Cc3cccs3)c2c1
2. COc1ccc(C2CC(=O)C3=C(C2)NC(C)=C(C(=O)OC2CCCCC2)C3c2cccc(C)c2)cc1OC (configuration not stated)
3. COC(OC)C(C)=NNC(N)=S
4. CC(=O)O[C@]1(C(C)=O)CCC2C3C=CC4=CC(=O)CC[C@]4(C)C3CC[C@@]21C (some centres not stated)
5. C[n+]1c(/C=C/c2ccc(F)cc2)ccc2ccccc21
6. C/C(Cl)=C/C[N+]1(CC#Cc2cccc3ccccc23)CCOCC1
7. CCOC(=O)c1ccc(N(C(=O)Cc2c[nH]c3ccccc23)C(C(=O)NC2CCCCC2)c2cccc(OC)c2OC)cc1 (configuration not stated)

1: 18.4 µM; 2: > 100 µM; 3: > 100 µM; 4: > 10 µM; 5: > 10 µM; 6: > 10 µM; 7: > 100 µM

====

- measurement-protocol: NOVARTIS: Cytotoxicity against human hepatocellular carcinoma cell line (Huh7)
- Assay type: toxicity, cell-based, Huh-7
- run-parameters: Huh7 cells (hepatocellular carcinoma cell line)
property-label: CC50

Completed entries (count: 2):
molecule	CC50
CCCCCc1c(C)c(C#N)c2nc3ccccc3n2c1NCCN(CC)CC	> 10 µM
CCc1ccc(NC(=O)CSc2nc(C)cc(C)c2C#N)cc1	> 10 µM

Parameters: items (list). Returns: CC50 for each item.
1. CN1CCCC1CCNc1ncc(C(=O)NCc2ccccc2)c(NCC2CCCCC2)n1 (centres undefined)
2. CCOc1ccc(C(=O)Cn2ccc(=NCc3ccccc3)cc2)cc1[N+](=O)[O-]

["> 10 µM", "20.1 µM"]

====

- Test system: Plasmodium falciparum
- measurement-protocol: NOVARTIS: Inhibition of Plasmodium falciparum 3D7 (drug-susceptible) proliferation in erythrocyte-based infection assay
- Type: functional, organism-based
- run-parameters: Plasmodium falciparum, 3D7
property-label: EC50

Completed entries (count: 2):
compound	EC50
CCOC(=O)C1=C(C)NC2=C(C(=O)CCC2)C1c1cc(Br)c(O)c(OCC)c1 (stereo not drawn)	> 510 nM
COCCN(CC(O)CNC(=O)c1ccc2ccccc2n1)S(=O)(=O)c1c(C)noc1C (stereo not drawn)	> 90 nM

Consider now this further compound.
I'd like to know its EC50. The compound in question is `CCOC(=O)C1=C(C)N/C(=C\c2cc(C)n(-c3cccc(Br)c3)c2C)C1=O`
> 1250 nM

====

I'd be grateful if you could share measured EC50 for these entries.
- System: Plasmodium falciparum
- measurement-protocol: NOVARTIS: Inhibition of Plasmodium falciparum 3D7 (drug-susceptible) proliferation in erythrocyte-based infection assay
- Format: functional, organism-based
- run-parameters: Plasmodium falciparum, 3D7

Parameters: items (list). Returns: EC50 for each item.
1. CC1=NOC(=O)C1=Cc1cccs1
2. CC(=Cc1sc2ccc3occc3c2[n+]1CCO)C=C1Sc2ccc3ccoc3c2N1CCO.CCC(=Cc1sc2ccc3ccccc3c2[n+]1C)C=C1Sc2ccc3ccccc3c2N1C
3. O=C(Nc1cccc(-c2nc3ccccc3[nH]2)c1)c1ccccc1[N+](=O)[O-]
4. Cc1cc(C)nc(SCc2cc(=O)c(OC(=O)c3cccc([N+](=O)[O-])c3C)co2)n1
5. COc1ccc(Cn2nnnc2CN2CCc3ccccc3C2)cc1

["> 8.25 µM", "> 0.373 µM", "> 1.72 µM", "> 12.5 µM", "> 0.853 µM"]

Parameters: items (list). Returns: EC50 for each item.
1. CCCSCCCNC(=O)c1oc2c(c1C)-c1[nH]ncc1CC2
2. CCOC(=O)c1cnc2cc(OCC3CC3)c(OCC3CC3)cc2c1O
3. CC(=O)Nc1nc(-c2ccc(F)cc2)cs1
4. CC(C)NC(=O)c1ccc2c(c1)N=C(c1ccccc1)N(C1CC1)C2
5. CC(=O)OC1CCC2(C)C(CCC3C2CCC2(C)C3CC(O)C2(O)C(C)=O)C1 (stereo not given)

> 1.15 µM
< 0.00572 µM
> 12.5 µM
> 1.68 µM
> 1.25 µM

====

I'd be grateful if you could share measured CC50 for these entries.
- measurement-protocol: NOVARTIS: Cytotoxicity against human hepatocellular carcinoma cell line (Huh7)
- Assay type: toxicity, cell-based, Huh-7
- run-parameters: Huh7 cells (hepatocellular carcinoma cell line)

Completed entries (count: 4):
COc1ccc(-c2noc(CC(=O)Nc3ccccc3C#N)n2)cc1 > 100 µM
O=C(c1ccccc1)N1CCc2nc(Cc3ccc(F)cc3Cl)sc2C1 > 57.4 µM
CC(C)(C)c1ccc(C(=O)Nc2ccc(NC(=O)c3ccc(-c4ccc([N+](=O)[O-])cc4)o3)cc2)cc1 > 100 µM
c1cc(-c2cccc3cccnc23)nc(N2CCN(CCN3CCCC3)CC2)c1 70.1 µM

Parameters: items (list). Returns: CC50 for each item.
1. CCSc1ccc2ccccc2[n+]1CC
2. CC(=O)Nc1ccc(NS(=O)(=O)c2cc([N+](=O)[O-])ccc2Cl)cc1

1: > 100 µM; 2: > 100 µM

====

- Test system: Plasmodium falciparum
- measurement-protocol: NOVARTIS: Inhibition of Plasmodium falciparum 3D7 (drug-susceptible) proliferation in erythrocyte-based infection assay
- Format: functional, organism-based
- run-parameters: Plasmodium falciparum, 3D7
pEC50: −log10 of the molar value.
I'd be grateful if you could share measured pEC50 for these entries.

compound	system-name	property-label	value
O=C(COC(c1cccs1)c1cccnc1Cl)N1CCN(C(=O)Nc2ccccc2)CC1 (stereo not drawn)	Plasmodium falciparum	pEC50	< 4.90
CC[n+]1c(/C=C2\C=C(C)CC(C)C2)sc2ccccc21 (stereo not drawn)	Plasmodium falciparum	pEC50	< 5.94

Find pEC50 (Plasmodium falciparum) for the entry CCOC(=O)C1=C(C)N=c2sc(=Cc3cccc(OCc4cccc5ccccc45)c3)c(=O)n2C1c1ccc(OC)cc1OC (stereo not drawn)
< 4.90

====

I'd be grateful if you could share measured CC50 for these entries.
- measurement-protocol: NOVARTIS: Cytotoxicity against human hepatocellular carcinoma cell line (Huh7)
- Format: toxicity, cell-based, Huh-7
- run-parameters: Huh7 cells (hepatocellular carcinoma cell line)

compound	value
NC1(C(=O)O)CCc2cc(C(=O)O)ccc21 (centres undefined)	> 10 µM
COc1ccc(C2CC(=O)C3=C(C2)NC(C)=C(C(=O)OC2CCCC2)C3c2ccc(Cl)cc2)cc1OC (centres undefined)	21.6 µM
COc1ccc(C=NNc2cc(C)nc3ccccc23)cc1	18.9 µM
CCCCCCOc1ccc(NC(=O)c2ccco2)cc1	> 10 µM
O=[N+]([O-])c1ccc(S(=O)(=O)N2CCN(C(=S)NCc3ccccc3)CC2)cc1	> 100 µM
COc1ccc(-c2c[n+](CC(=O)c3ccccc3)c3n2CCC3)cc1	> 100 µM
Cc1cc(Cl)c(S(=O)(=O)N2CCSCC2)cc1OCC(=O)NC1CCCCC1	> 100 µM
Cc1cc(C)n(CC(O)Cn2c3ccc(Cl)cc3c3cc(Cl)ccc32)n1 (centres undefined)	45.5 µM

Parameters: items (list). Returns: CC50 for each item.
1. COC1=CC(=O)c2c(ccc3c(OC)c(O)ccc23)C1=O
2. CCOC(=O)c1sc(-c2cnccc2C(F)(F)F)nc1C
3. Fc1ccc(C(CCNc2ncnc3c2[nH]c2ccccc23)c2ccco2)cc1 (centres undefined)
4. O=C(O)c1c(F)cccc1Cl
5. O=C(c1ccccc1)N1CCN(c2ccccc2NC(=O)C(Cl)(Cl)Cl)CC1

> 10 µM
> 10 µM
20.2 µM
> 100 µM
> 100 µM

Parameters: items (list). Returns: CC50 for each item.
1. CCN1C(=O)N(CC)C(NNC(N)=S)C1NNC(N)=S (centres undefined)
2. COc1ccc(C(=O)NC(c2ccc(C)cc2)c2cc(Cl)c3cccnc3c2O)cc1 (centres undefined)
3. O=C(/C=C/c1ccccn1)NCC1Cc2cc(-c3cnccn3)ccc2O1 (centres undefined)
4. c1ccc(-c2nc3cc4nc(-c5ccccc5)[nH]c4cc3[nH]2)cc1
5. Cc1oc2c(c1C(=O)NCCCn1ccnc1)C(=O)c1ccccc1C2=O

> 100 µM
> 100 µM
> 10 µM
> 100 µM
0.27 µM

// data source = ChEMBL document CHEMBL1156829
